Reference source: PubChem BioAssay AID1159580

Assay: chemical genetic growth profiling, strain panel (AID 1159580);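 further: tested at 20 µM; growth read once vehicle control cultures reached saturation at 30 °C; 1 = growth at the plate median or of vehicle wells; lower values mean less growth of the strain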
Conditions: S. cerevisiae deletion strains, growth OD, locus YPL078C, strain atp4, hits give low values
The campaign covered roughly 5,500 compounds. About 2,000 (36%) were called active. Inconclusive results (about 18%) are left out. The list shows a part of the results.
Documented normalized growth across a set of compounds
Respond using a number only.

Some compounds with recorded normalized growth:
>  <compound>
Cc1onc(-c2ccccc2)c1-c1ccc(S(N)(=O)=O)cc1

>  <normalized growth>
0.996

$$$$
>  <compound>
NCC[C@@H](O)C(=O)N[C@@H]1C[C@H](N)[C@@H](O[C@H]2O[C@H](CN)[C@@H](O)[C@H](O)[C@H]2O)[C@H](O)[C@H]1O[C@H]1O[C@H](CO)[C@@H](O)[C@H](N)C1O (some centres undefined)

>  <normalized growth>
1.03

$$$$
>  <compound>
CN(C)CCC(c1ccccc1)c1ccccn1 (centres undefined)

>  <normalized growth>
1.01

$$$$

Looking up CC(=O)O[C@@H]1CC2C(C)(C)[C@@H](O)CC[C@]2(C)C2CC[C@@]3(C)[C@H](c4ccoc4)OC(=O)[C@H]4O[C@]43[C@@]21C (some centres undefined) , I see its normalized growth listed as 0.991

Looking up `Cc1oncc1C(=O)Nc1ccc(C(F)(F)F)cc1` , I see its normalized growth listed as 0.935

Looking up `CCCn1c(=O)c2[nH]c(C3CCCC3)nc2n(CCC)c1=O` , I see its normalized growth listed as 0.994

Looking up CC(=O)O[C@@H]1CC2C(C)(C)[C@H](O)C=C[C@]2(C)C2CC[C@@]3(C)[C@H](c4ccoc4)OC(=O)C4OC43[C@@]21C (some centres undefined) , I see its normalized growth listed as 1.01

Looking up `COP(=S)(OC)Oc1ccc([N+](=O)[O-])cc1` , I see its normalized growth listed as 0.999

Looking up O=C(O)C1CCCNC1 (centres undefined) , I see its normalized growth listed as 1.03

Looking up CC(=O)O[C@H]1CC[C@@]2(C)C(C[C@@H](OC(C)=O)[C@]3(C)C2CC[C@@]2(C)[C@H](c4ccoc4)OC(=O)[C@H]4O[C@]423)C1(C)C (some centres undefined) , I see its normalized growth listed as 1.02

Looking up CC1(C)C(=O)[C@@H]2O[C@@H]2[C@@]2(C)C1C[C@@H](O)[C@]1(C)C2CC[C@@]2(C)[C@H](c3ccoc3)OC(=O)C3OC321 (some centres undefined) , I see its normalized growth listed as 1.01

====

Documented normalized growth across a set of compounds
Experiment: chemical genetic growth profiling, strain panel (AID 1159580);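 further: tested at 20 µM; growth read once vehicle control cultures reached saturation at 30 °C; 1 = growth at the plate median or of vehicle wells; lower values mean less growth of the strain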
Details: S. cerevisiae deletion strains, growth OD, locus YEL061C, strain CIN8, hits give low values
The whole screen tested about 5,500 compounds, of which about 2,000 (36%) were called active. About 18% were inconclusive and are not listed. The list shows a part of the results.
Respond using a number only.

>  <chemical_string>
Cc1onc2c(=O)n(-c3ccccc3)nc(-c3ccccc3)c12

>  <normalized growth>
0.968

$$$$
>  <chemical_string>
NC1(C(=O)O)CCC1

>  <normalized growth>
1

$$$$
>  <chemical_string>
CCOC(=O)c1cnn(-c2ccc(N)cc2)c1C(F)(F)F

>  <normalized growth>
0.918

$$$$
>  <chemical_string>
C1N2CN3CN1CN(C2)C3

>  <normalized growth>
0.983

$$$$
>  <chemical_string>
O=S(=O)(NCCc1ccncc1)c1cc(C(F)(F)F)cc(C(F)(F)F)c1

>  <normalized growth>
1

$$$$
>  <chemical_string>
CC(=O)O[C@]1(C)CC[C@@]23CC1C(C)(C)[C@@H]2CC[C@H]3C

>  <normalized growth>
0.996

$$$$
>  <chemical_string>
CCOC(=O)c1cnn(-c2ccc(F)cc2)c1N

>  <normalized growth>
0.984

$$$$
>  <chemical_string>
Cc1onc(-c2ccccc2)c1-c1ccc(S(N)(=O)=O)cc1

>  <normalized growth>
0.992

$$$$

Looking up `NC1(C(=O)O)CC1` , I see its normalized growth listed as 1

Looking up `Cc1nn(-c2ccccc2)nc1-c1nnc(-c2ccc(Cl)cc2)o1` , I see its normalized growth listed as 1.01

Looking up `NNC(=O)c1cnn(-c2ccc(Cl)cc2)c1C(F)(F)F` , I see its normalized growth listed as 0.998

Looking up `CCOC(=O)C(=CNNS(=O)(=O)c1cc(C(F)(F)F)cc(C(F)(F)F)c1)C(=O)OCC` , I see its normalized growth listed as 1.01
